assay: Toxicity in zebrafish embryo; parameters: species or system Danio rerio; details: in vivo
measurementKind: EC100

Some compounds with recorded EC100:
>>> reportedvalue("CCOC(CN1C(=O)C(NC(=O)Nc2ccc(C)cc2)(C(F)(F)C(=O)Nc2ccc(C)cc2)c2ccccc21)OCC (stereo unspecified)")
"> 50 µM"
>>> reportedvalue("CN1C(=O)C(NC(=O)OC(C)(C)C)(C(F)(F)C(=O)c2ccccc2)c2ccccc21 (stereo unspecified)")
"> 50 µM"

Hi team, please reply with EC100 for each item in this list.
1. CC(C)(C)OC(=O)NC1(C(F)(F)C(=O)c2ccccc2)C(=O)Nc2ccccc21 (stereo unspecified)
2. CCOC(CN1C(=O)C(NC(=O)OC(C)(C)C)(C(F)(F)C(=O)c2ccccc2)c2ccccc21)OCC (stereo unspecified)
3. CCOC(CN1C(=O)C(NC(=O)OC(C)(C)C)(C(F)(F)C(=O)c2ccc(OC)cc2)c2ccccc21)OCC (stereo unspecified)
4. N#CC(C#N)C1(C(F)(F)C(=O)c2ccc(Cl)cc2)C(=O)Nc2ccccc21 (stereo unspecified)

["> 50 µM", "50 µM", "> 50 µM", "20 µM"]

All values here come from ChEMBL document CHEMBL4619791.
